Target: USP7 (Homo sapiens (Human))
Assay: USP7 Assay B (Ubitquin-Rhodamine110 Assay)
Assay type: biochemical
Details: Ub-Rh110 substrate 25 nM
pIC50: −log10 of the molar value.
assayReadout: pIC50

Some entries whose results are on file:
{"molecule": "N#CC(Cc1ccccc1)C(=O)N1CCC(O)(Cn2cnn3cccc3c2=O)CC1 (centres unmarked) [Compound I-54]", "pIC50": "< 5.00"}
{"molecule": "O=C(c1ccc(-c2ccc3ocnc3c2)cc1)N1CCC(O)(Cn2cnn3cccc3c2=O)CC1 [Compound I-47]", "pIC50": "< 5.00"}
{"molecule": "Cc1ccc(C)c(C(=O)Nc2cc3c(=O)n(CC4(O)CCN(C(=O)C5CC5)CC4)cnn3c2)c1 [Compound I-109]", "pIC50": "< 5.00"}
{"molecule": "O=C(c1ccc(-c2cscn2)cc1)N1CCC(O)(Cn2cnn3cccc3c2=O)CC1 [Compound I-59]", "pIC50": "< 5.00"}
{"molecule": "O=C(c1ccccc1)N1CCC(O)(Cn2cnn3c(-c4ccccc4)ncc3c2=O)CC1 [Compound I-115]", "pIC50": "5.00 to 6.00"}
{"molecule": "O=C(c1ccc(Cc2cccs2)cc1)N1CCC(O)(Cn2cnn3cccc3c2=O)CC1 [Compound I-70]", "pIC50": "5.00 to 6.00"}
{"molecule": "CC(CC(=O)Nc1cc2c(=O)n(CC3(O)CCN(C(=O)C4CC4)CC3)cnn2c1)c1ccc(Cl)cc1 (centres unmarked) [Compound I-113]", "pIC50": "< 5.00"}

As a next step, examine the molecule that follows.
Field: pIC50 (USP7 (Homo sapiens (Human))). Entry: O=C(Nc1ccc(F)cc1)Nc1cc2c(=O)n(CC3(O)CCN(C(=O)C4CC4)CC3)cnn2c1 [Compound I-88]
< 5.00

====

Biological target: USP7 (Homo sapiens (Human), UniProt Q93009)
Sequence (Q93009 208-1102): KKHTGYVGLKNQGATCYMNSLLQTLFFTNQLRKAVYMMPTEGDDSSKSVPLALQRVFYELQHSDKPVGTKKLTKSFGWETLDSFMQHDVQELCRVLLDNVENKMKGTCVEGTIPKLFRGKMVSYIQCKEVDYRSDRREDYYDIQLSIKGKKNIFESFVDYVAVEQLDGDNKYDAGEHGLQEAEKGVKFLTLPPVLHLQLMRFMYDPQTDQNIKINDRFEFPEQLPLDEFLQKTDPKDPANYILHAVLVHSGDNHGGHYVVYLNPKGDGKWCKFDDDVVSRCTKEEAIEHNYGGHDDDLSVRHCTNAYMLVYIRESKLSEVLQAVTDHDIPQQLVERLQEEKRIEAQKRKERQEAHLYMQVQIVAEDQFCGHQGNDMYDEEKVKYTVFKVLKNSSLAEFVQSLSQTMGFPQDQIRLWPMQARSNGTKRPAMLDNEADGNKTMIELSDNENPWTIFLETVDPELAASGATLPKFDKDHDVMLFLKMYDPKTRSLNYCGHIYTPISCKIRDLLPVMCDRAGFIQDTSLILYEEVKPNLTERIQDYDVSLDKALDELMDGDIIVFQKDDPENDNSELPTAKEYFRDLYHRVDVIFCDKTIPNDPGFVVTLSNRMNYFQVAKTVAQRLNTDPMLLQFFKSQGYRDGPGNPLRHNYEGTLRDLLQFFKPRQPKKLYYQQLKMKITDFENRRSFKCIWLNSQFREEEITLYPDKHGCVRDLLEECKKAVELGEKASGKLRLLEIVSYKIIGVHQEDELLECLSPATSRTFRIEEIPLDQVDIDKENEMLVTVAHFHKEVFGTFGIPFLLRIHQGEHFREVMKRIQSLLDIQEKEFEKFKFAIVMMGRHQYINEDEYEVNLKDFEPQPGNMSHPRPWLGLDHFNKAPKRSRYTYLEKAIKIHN
Test: USP7 Assay B (Ubitquin-Rhodamine110 Assay)
Type: biochemical
Details: Ub-Rh110 substrate 25 nM
Recorded measurements of IC50, one per entry

{"molecule": "O=C(c1ccc(-c2ccccc2)cc1Cl)N1CCC(O)(Cn2cnn3cccc3c2=O)CC1", "assayReadout": "IC50", "resultValue": "> 10 µM"}
{"molecule": "O=C(c1cccc(-c2ccsc2)c1)N1CCC(O)(Cn2cnn3cccc3c2=O)CC1", "assayReadout": "IC50", "resultValue": "> 10 µM"}
{"molecule": "Cc1ccc(NC(=O)Nc2cc3c(=O)n(CC4(O)CCN(C(=O)C5CC5)CC4)cnn3c2)c(C)c1", "assayReadout": "IC50", "resultValue": "> 10 µM"}
{"molecule": "O=C(COc1cccc(Cl)c1Cl)Nc1cc2c(=O)n(CC3(O)CCN(C(=O)C4CC4)CC3)cnn2c1", "assayReadout": "IC50", "resultValue": "1 to 10 µM"}
{"molecule": "CCOc1cccc(-c2ccc(C(=O)N3CCC(O)(Cn4cnn5cccc5c4=O)CC3)cc2)c1", "assayReadout": "IC50", "resultValue": "> 10 µM"}

Any idea what IC50 was measured for O=C(c1cccc(-c2cccc(F)c2)c1)N1CCC(O)(Cn2cnn3cccc3c2=O)CC1 ?
1 to 10 µM

What about this molecule? Cc1ccc(-c2cccc(C(=O)N3CCC(O)(Cn4cnn5cccc5c4=O)CC3)c2)cc1C
> 10 µM

What about this molecule? O=C(c1ccc(Oc2ccccc2)cc1)N1CCC(O)(Cn2cnn3cccc3c2=O)CC1
> 10 µM

====

Recorded measurements of pIC50, one per entry
Target: USP7 (Homo sapiens (Human), UniProt Q93009)
Test: USP7 Assay B (Ubitquin-Rhodamine110 Assay)
Type: biochemical
Details: Ub-Rh110 substrate 25 nM
pIC50: −log10 of the molar value.

{"compound": "O=C(NCc1ccc(F)cc1)Nc1cc2c(=O)n(CC3(O)CCN(C(=O)C4CC4)CC3)cnn2c1 [Compound I-87]", "measuredTarget": "USP7 (Homo sapiens (Human), UniProt Q93009)", "assayReadout": "pIC50", "resultValue": "< 5.00"}
{"compound": "O=C(NCc1ccc(Cl)cc1)Nc1cc2c(=O)n(CC3(O)CCN(C(=O)C4CC4)CC3)cnn2c1 [Compound I-91]", "measuredTarget": "USP7 (Homo sapiens (Human), UniProt Q93009)", "assayReadout": "pIC50", "resultValue": "< 5.00"}
{"compound": "O=C(c1ccc(-c2ccccc2)cc1)N1CCC(O)(Cn2cnn3cccc3c2=O)CC1 [Compound I-36]", "measuredTarget": "USP7 (Homo sapiens (Human), UniProt Q93009)", "assayReadout": "pIC50", "resultValue": "< 5.00"}
{"compound": "CS(=O)(=O)c1ccc(N2CCN(C(=O)N3CCC(O)(Cn4cnn5cccc5c4=O)CC3)CC2)cc1 [Compound I-74]", "measuredTarget": "USP7 (Homo sapiens (Human), UniProt Q93009)", "assayReadout": "pIC50", "resultValue": "< 5.00"}
{"compound": "O=C(c1ccc(-c2ccc(C(=O)N3CCC(O)(Cn4cnn5cccc5c4=O)CC3)c(Cl)c2)cc1)N1CCCCC1 [Compound I-79]", "measuredTarget": "USP7 (Homo sapiens (Human), UniProt Q93009)", "assayReadout": "pIC50", "resultValue": "5.00 to 6.00"}

Any idea what pIC50 was measured for Cc1ccc(CNC(=O)Nc2cc3c(=O)n(CC4(O)CCN(C(=O)C5CC5)CC4)cnn3c2)cc1 [Compound I-92] ?
< 5.00

What about this compound? O=C(c1cccc(-c2ccc3ncccc3c2)c1)N1CCC(O)(Cn2cnn3cccc3c2=O)CC1 [Compound I-21]
5.00 to 6.00

What about this compound? COc1cc(OC)cc(-c2ccc(C(=O)N3CCC(O)(Cn4cnn5cccc5c4=O)CC3)cc2)c1 [Compound I-44]
< 5.00

What about this compound? Cc1cc2c(=O)n(CC3(O)CCN(C(=O)C(C)Cc4ccccc4)CC3)cnn2c1 (stereo not drawn) [Compound I-84]
5.00 to 6.00

====

Target: USP7 (Homo sapiens (Human), UniProt Q93009)
Test: USP7 Assay B (Ubitquin-Rhodamine110 Assay)
Assay type: biochemical
Conditions: Ub-Rh110 substrate 25 nM
pIC50: −log10 of the molar value.
Recorded measurements of pIC50, one per entry

Some entries whose results are on file:
{"molecule": "CC(CC(=O)N1CCC(O)(Cn2cnn3cccc3c2=O)CC1)c1ccccc1 (stereo not shown) [Compound I-1]", "pIC50": "6.00 to 6.70"}
{"molecule": "O=C(c1cccc(-c2ccc3nccn3c2)c1)N1CCC(O)(Cn2cnn3cccc3c2=O)CC1 [Compound I-22]", "pIC50": "< 5.00"}

Any idea what pIC50 was measured for CC(CC(=O)N1CCC(O)(Cn2cnn3cccc3c2=O)CC1)n1cccc1 (stereo not shown) [Compound I-57] ?
> 6.70

What about this molecule? O=C(c1ccc(-c2ccc(C(=O)N3CCC(O)(Cn4cnn5cccc5c4=O)CC3)cc2)cc1)N1CCCCC1 [Compound I-52]
< 5.00

What about this molecule? O=C(Nc1cccc(F)c1)Nc1cc2c(=O)n(CC3(O)CCN(C(=O)C4CC4)CC3)cnn2c1 [Compound I-96]
< 5.00

What about this molecule? N#Cc1ccc(-c2cccc(C(=O)N3CCC(O)(Cn4cnn5cccc5c4=O)CC3)c2)cc1 [Compound I-19]
< 5.00

What about this molecule? Cc1ccc2c(=O)n(CC3(O)CCN(C(=O)CC(C)c4ccccc4)CC3)cnn12 (stereo not shown) [Compound I-76]
6.00 to 6.70

What about this molecule? O=C(c1cccc(-c2ccccc2F)c1)N1CCC(O)(Cn2cnn3cccc3c2=O)CC1 [Compound I-29]
5.00 to 6.00

What about this molecule? Cc1ccc(-c2cccc(C(=O)N3CCC(O)(Cn4cnn5cccc5c4=O)CC3)c2)cc1 [Compound I-7]
5.00 to 6.00

What about this molecule? Cc1ccc(-c2cccc(C(=O)N3CCC(O)(Cn4cnn5cccc5c4=O)CC3)c2)s1 [Compound I-20]
< 5.00

What about this molecule? Cc1cc(-c2cccc(C(=O)N3CCC(O)(Cn4cnn5cccc5c4=O)CC3)c2)ccc1F [Compound I-9]
< 5.00

What about this molecule? COc1ccc(-c2cccc(C(=O)N3CCC(O)(Cn4cnn5cccc5c4=O)CC3)c2)cc1 [Compound I-8]
5.00 to 6.00

What about this molecule? O=C(Nc1cc2c(=O)n(CC3(O)CCN(C(=O)C4CC4)CC3)cnn2c1)c1ccc(Cl)cc1Cl [Compound I-111]
< 5.00

What about this molecule? O=C(Nc1cc2c(=O)n(CC3(O)CCN(C(=O)C4CC4)CC3)cnn2c1)c1csc(-c2ccccc2)n1 [Compound I-112]
5.00 to 6.00

What about this molecule? O=C(c1cccc(-c2ccc(Cl)cc2)c1)N1CCC(O)(Cn2cnn3cccc3c2=O)CC1 [Compound I-12]
5.00 to 6.00

What about this molecule? Cc1ccc2[nH]ncc2c1-c1cccc(C(=O)N2CCC(O)(Cn3cnn4cccc4c3=O)CC2)c1 [Compound I-24]
5.00 to 6.00

What about this molecule? O=C(CC1CCc2ccccc2C1)N1CCC(O)(Cn2cnn3cccc3c2=O)CC1 (stereo not shown) [Compound I-58]
< 5.00

What about this molecule? O=C(COc1ccc(Cl)c(Cl)c1)Nc1cc2c(=O)n(CC3(O)CCN(C(=O)C4CC4)CC3)cnn2c1 [Compound I-105]
< 5.00

What about this molecule? O=C(C1CCN(c2nc3ccccc3o2)CC1)N1CCC(O)(Cn2cnn3cccc3c2=O)CC1 [Compound I-33]
< 5.00

What about this molecule? O=C(c1ccccc1)c1ccc(C(=O)N2CCC(O)(Cn3cnn4cccc4c3=O)CC2)cc1 [Compound I-71]
5.00 to 6.00
